# Tested System: UniProt B3VTJ2
# Method: PDE2 fluorescence polarization (IMAP FP) inhibition assay, rhesus enzyme
# Type: biochemical, rhesus macaque
# Assay Setup: Rhesus PDE2, Lab B; read-out: Rhesus PDE2 Ki (nM) - Lab B
Quantity: Ki (nM)

[[record]]
compound = "Cc1nc(C(=O)N[C@@H](c2ccc(S(F)(F)(F)(F)F)cc2)C(C)C)cc(=O)[nH]1"
measured_value = 6

[[record]]
compound = "CCc1nc(C(=O)NC2(c3ccc(C(F)(F)F)c(F)c3)CC2)cc(=O)[nH]1"
measured_value = 8

[[record]]
compound = "Cc1nc(C(=O)NC2(c3ccc(OC(F)(F)F)c(F)c3)CC2)cc(=O)[nH]1"
measured_value = 19

[[record]]
compound = "O=C(N[C@H](CC(F)(F)F)c1ccc(C(F)(F)F)cc1)c1cc(=O)[nH]c(-c2ccccc2)n1"
measured_value = 23

[[record]]
compound = "CC(C)(C)[C@@H](NC(=O)c1cc(=O)[nH]c(C2CC2)n1)c1ccc(C(F)(F)F)cc1F"
measured_value = 2.1

[[record]]
compound = "CC(C)(C)[C@@H](NC(=O)c1cc(=O)[nH]c(C2CC2)n1)c1ccc(C(F)(F)F)cc1"
measured_value = 0.85

[[record]]
compound = "Cc1nc(C(=O)NC(c2ccc(C3(C)CC3)c(F)c2)C(C)(C)C)cc(=O)[nH]1 (single isomer, unassigned) [Example 711]"
measured_value = 5.1

[[record]]
compound = "COc1ccc(Cc2nc(C(=O)N[C@@H](c3ccc(SC(F)(F)F)c(F)c3)C3CC3)cc(=O)[nH]2)cc1F"
measured_value = 3.8


a: COCc1nc(C(=O)N[C@H](C)c2ccc(OC(F)(F)F)c(F)c2)cc(=O)[nH]1
b: Cc1nc(C(=O)N[C@@H](c2ccc(SC(F)(F)F)cc2)C(C)(C)C)cc(=O)[nH]1
c: CC(C)(NC(=O)c1cc(=O)[nH]c(-c2ccccc2)n1)c1ccc(Br)cc1
d: Cc1nc(C(=O)N[C@@H](c2ccc(OC(F)(F)F)c(F)c2)C(C)(C)C)cc(=O)[nH]1
# input Number of compounds to sort: 4. Sort criterion: Ki, ascending. Labels, ranked as asked.
# output b, d, a, c
(b: 2.5 nM, d: 4.8 nM, a: 61 nM, c: 109 nM)

---

# Tested System: human PDE2A1 (Homo sapiens (Human), UniProt O00408)
# Sequence (O00408 other isoform, or with tags, fused parts or gaps): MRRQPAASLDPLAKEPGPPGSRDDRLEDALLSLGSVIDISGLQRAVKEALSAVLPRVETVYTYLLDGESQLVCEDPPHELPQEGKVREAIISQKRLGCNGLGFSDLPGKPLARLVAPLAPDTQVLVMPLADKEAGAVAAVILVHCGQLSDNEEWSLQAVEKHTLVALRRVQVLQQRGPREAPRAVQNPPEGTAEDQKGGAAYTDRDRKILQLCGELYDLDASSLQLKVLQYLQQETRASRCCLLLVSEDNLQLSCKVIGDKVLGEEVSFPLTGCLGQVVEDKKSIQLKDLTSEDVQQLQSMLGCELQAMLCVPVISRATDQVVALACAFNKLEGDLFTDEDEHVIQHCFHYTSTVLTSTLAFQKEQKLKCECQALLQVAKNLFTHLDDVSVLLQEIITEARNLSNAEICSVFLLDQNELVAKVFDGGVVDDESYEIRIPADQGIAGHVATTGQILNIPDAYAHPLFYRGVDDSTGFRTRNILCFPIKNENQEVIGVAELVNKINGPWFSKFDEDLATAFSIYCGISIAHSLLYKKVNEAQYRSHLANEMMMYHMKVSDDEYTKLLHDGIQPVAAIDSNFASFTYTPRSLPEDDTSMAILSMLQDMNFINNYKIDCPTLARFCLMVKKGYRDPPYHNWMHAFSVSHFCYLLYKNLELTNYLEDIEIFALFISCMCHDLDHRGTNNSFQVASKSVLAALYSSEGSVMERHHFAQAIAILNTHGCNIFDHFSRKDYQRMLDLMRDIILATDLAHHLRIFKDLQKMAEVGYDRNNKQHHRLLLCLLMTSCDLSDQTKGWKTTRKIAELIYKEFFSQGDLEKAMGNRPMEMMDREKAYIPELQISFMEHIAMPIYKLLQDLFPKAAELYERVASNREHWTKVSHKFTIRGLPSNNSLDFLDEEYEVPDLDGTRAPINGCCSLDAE
# Method: IMAP FP PDE selectivity panel, human PDE2A1
# Format: biochemical
# Assay Setup: Human PDE2, Lab B; read-out: Human PDE2 Ki (nM) - Lab B
Quantity: Ki (nM)

Known results for compounds:
[[record]]
compound = "CC(C)(NC(=O)c1cc(=O)[nH]c(-c2ncccn2)n1)c1ccc(OC(F)(F)F)cc1F"
quantity = "Ki"
measured_value = 831

[[record]]
compound = "CC(C)(C)[C@@H](NC(=O)c1cc(=O)[nH]c(C2CC2)n1)c1ccc(C2CC2)c(F)c1"
quantity = "Ki"
measured_value = 0.78

[[record]]
compound = "CC(C)c1ccc([C@H](NC(=O)c2cc(=O)[nH]c(-c3ncccn3)n2)C2(C)CC2)cc1"
quantity = "Ki"
measured_value = 4.3

[[record]]
compound = "COc1ccc(Cc2nc(C(=O)N[C@@H](c3ccc(OC(F)(F)F)cc3)C(C)(C)C)cc(=O)[nH]2)cc1F"
quantity = "Ki"
measured_value = 0.99


I: O=C(NC(c1ccc(F)cc1)c1ccc(C(F)(F)F)cc1)c1cc(=O)[nH]c(-c2ccccc2)n1 (stereo not shown)
II: COCc1nc(C(=O)N[C@@H](c2ccc(OC(F)(F)F)c(F)c2)C2CC2)cc(=O)[nH]1
# input Between I and II , whose measured Ki reads higher? Lab note: record the label of whichever item you select.
# output I
(I: 262 nM, II: 42 nM)

---

# Tested System: Rhesus PDE2A3 (Macaca mulatta, UniProt B3VTJ2)
# Sequence (B3VTJ2 1-941): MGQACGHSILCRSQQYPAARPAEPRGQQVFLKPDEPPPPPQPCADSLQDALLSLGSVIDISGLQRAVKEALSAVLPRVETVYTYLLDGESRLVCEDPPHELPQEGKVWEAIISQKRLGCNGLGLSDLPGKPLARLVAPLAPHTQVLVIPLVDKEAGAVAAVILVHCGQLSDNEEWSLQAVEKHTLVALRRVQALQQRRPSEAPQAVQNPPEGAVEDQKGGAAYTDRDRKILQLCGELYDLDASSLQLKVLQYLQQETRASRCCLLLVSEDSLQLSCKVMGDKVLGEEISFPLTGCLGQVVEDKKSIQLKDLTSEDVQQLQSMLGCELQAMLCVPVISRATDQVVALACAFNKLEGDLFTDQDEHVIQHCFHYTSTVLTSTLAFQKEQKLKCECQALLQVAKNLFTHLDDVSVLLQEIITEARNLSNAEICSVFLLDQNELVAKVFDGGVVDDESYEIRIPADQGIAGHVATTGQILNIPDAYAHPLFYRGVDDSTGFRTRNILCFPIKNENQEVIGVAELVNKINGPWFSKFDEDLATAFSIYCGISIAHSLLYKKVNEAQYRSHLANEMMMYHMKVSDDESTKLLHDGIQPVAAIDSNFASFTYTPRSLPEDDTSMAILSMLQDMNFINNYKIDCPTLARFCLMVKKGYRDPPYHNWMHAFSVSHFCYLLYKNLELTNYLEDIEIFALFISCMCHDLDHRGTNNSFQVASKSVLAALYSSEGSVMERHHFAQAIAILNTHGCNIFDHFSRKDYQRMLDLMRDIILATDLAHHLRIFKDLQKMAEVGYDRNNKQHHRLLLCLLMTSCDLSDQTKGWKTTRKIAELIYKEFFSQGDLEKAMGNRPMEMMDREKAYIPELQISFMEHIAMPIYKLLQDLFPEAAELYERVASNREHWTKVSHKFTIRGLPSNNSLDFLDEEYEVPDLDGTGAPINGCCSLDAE
# Method: PDE2 fluorescence polarization (IMAP FP) inhibition assay, rhesus enzyme
# Format: biochemical, rhesus macaque
# Assay Setup: Rhesus PDE2, Lab A; read-out: Rhesus PDE2 Ki (nM) - Lab A
# Experimental: The activity of the compounds in accordance with the present invention as PDE2 inhibitors may be readily determined using a fluorescence polarization (FP) methodology (Huang, W., et al., J. Biomol Screen, 2002, 7: 215). In a typical experiment the PDE2 inhibitory activity of the compounds of the present invention was determined in accordance with the following experimental method. […] 0% of inhibition is determined by using DMSO (1% final concentrations). […]
Quantity: Ki (nM)

Known results for molecules:
[[record]]
molecule = "O=C(N[C@@H](c1ccc(SC(F)(F)F)cc1)C1CC1)c1cc(=O)[nH]c(-c2ncccn2)n1"
quantity = "Ki"
measured_value = 7.4

[[record]]
molecule = "O=C(NC1(c2ccc(C(F)(F)F)cc2)CC1)c1cc(=O)[nH]c(-c2ccccc2)n1"
quantity = "Ki"
measured_value = 4.2

[[record]]
molecule = "O=C(N[C@@H](c1ccc(C(F)(F)F)cc1)C1CC1)c1cc(=O)[nH]c(-c2ccccc2)n1"
quantity = "Ki"
measured_value = 3.8

[[record]]
molecule = "CC[C@@H](NC(=O)c1cc(=O)[nH]c(C2CC2)n1)c1ccc(OC(F)(F)F)c(F)c1"
quantity = "Ki"
measured_value = 5.8

[[record]]
molecule = "Cc1nc(C(=O)N[C@@H](c2ccc(C(F)(F)F)cc2)C2CC2)cc(=O)[nH]1"
quantity = "Ki"
measured_value = 23


A: C[C@@H](NC(=O)c1cc(=O)[nH]c(-c2ncccn2)n1)c1ccc(C(F)(F)F)c(Cl)c1
B: CC(C)[C@@H](NC(=O)c1cc(=O)[nH]c(C2CC2)n1)c1ccc(S(F)(F)(F)(F)F)cc1
# input Between A and B , whose measured Ki reads higher? Lab note: record the label of whichever item you select.
# output A
(A: 12 nM, B: 1.7 nM)

I: CC(NC(=O)c1cc(=O)[nH]c(-c2ccccc2)n1)c1ccc(C2CC2)cc1 (centres unmarked)
II: C[C@@H](NC(=O)c1cc(=O)[nH]c(-c2ncccn2)n1)c1ccc(S(F)(F)(F)(F)F)cc1
III: C[C@@H](NC(=O)c1cc(=O)[nH]c(C(C)(C)n2cccn2)n1)c1ccc(C(F)(F)F)cc1
IV: COCc1nc(C(=O)N[C@H](C)c2ccc(SC(F)(F)F)cc2)cc(=O)[nH]1
# input Parameters: sort_field (Ki), sort_dir (desc). Labels, ranked as asked.
# output III, IV, I, II

a: CC(C)(NC(=O)c1cc(=O)[nH]c(C2CC2)n1)c1ccc(OC(F)(F)F)c(F)c1
b: Cc1nc(C(=O)NC2(c3ccc(C(F)(F)F)c(F)c3)CC2)cc(=O)[nH]1
# input Hey, which is lower on measured Ki, a or b ? Lab note: record the label of whichever item you select.
# output b
(b: 17 nM, a: 96 nM)

P: Cc1nc(C(=O)N[C@H](C)c2ccc(C(F)(F)F)cc2F)cc(=O)[nH]1
Q: CC[C@@H](NC(=O)c1cc(=O)[nH]c(C2CC2)n1)c1ccc(SC(F)(F)F)cc1
R: Cc1nc(C(=O)NC(C)c2ccc(C(F)(F)F)cn2)cc(=O)[nH]1 (centres unmarked)
S: C[C@@H](NC(=O)c1cc(=O)[nH]c(-c2ncccn2)n1)c1ccc(OC(F)(F)F)cc1
# input Number of molecules to sort: 4. Sort criterion: Ki, ascending. Labels, ranked as asked.
# output Q, S, P, R
(Q: 4.3 nM, S: 8.7 nM, P: 96 nM, R: 1160 nM)

---

# Tested System: Rhesus PDE2A3 (Macaca mulatta, UniProt B3VTJ2)
# Method: PDE2 fluorescence polarization (IMAP FP) inhibition assay, rhesus enzyme
# Assay type: biochemical, rhesus macaque
# Assay Setup: Rhesus PDE2, Lab A; read-out: Rhesus PDE2 Ki (nM) - Lab A
Quantity: Ki (nM)

[[record]]
compound = "C[C@@H](NC(=O)c1cc(=O)[nH]c(C2CC2)n1)c1ccc(OC(F)(F)F)cc1 [Example 10]"
quantity = "Ki"
measured_value = 9.9

[[record]]
compound = "C[C@@H](NC(=O)c1cc(=O)[nH]c(C2CC2)n1)c1ccc(SC(F)(F)F)cc1 [Example 15]"
quantity = "Ki"
measured_value = 4.4

[[record]]
compound = "COC(=O)c1ccc(C(C)(C)NC(=O)c2cc(=O)[nH]c(C3CC3)n2)cc1 [Example 215]"
quantity = "Ki"
measured_value = 967


A: O=C(N[C@@H](c1ccc(C(F)(F)F)cc1)C1CC1)c1cc(=O)[nH]c(C2CC2)n1 [Example 213]
B: C[C@@H](NC(=O)c1cc(=O)[nH]c(C2CC2)n1)c1ccc(CC(F)(F)F)cc1 [Example 217]
C: Cc1nc(C(=O)NC2(c3ccc(SC(F)(F)F)cc3)CCC2)cc(=O)[nH]1 [Example 49]
# input Number of compounds to sort: 3. Sort criterion: Ki, ascending. Labels, ranked as asked.
# output A, B, C
